assayedTarget: human recombinant Dipeptidyl peptidase IV enzyme (hrDPP IV) (Homo sapiens)
Construct: purchased R&D systems
protocolNotes: DPP IV assay, cleavage of H-Gly-Pro-AMC by human recombinant DPP-IV enzyme
Type: biochemical
measurementSetup: 300 nM compound concentration
Kindly state inhibition at 0.3 µM for each of the entries shown.
One number for each entry, in %.

Examples with answers:
testSmiles	observed
CC(C)c1noc([C@]2(C)CC[C@H](NCC(=O)N3C[C@@H](F)C[C@H]3C#N)C2(C)C)n1	79.2
CC1(C)[C@@H](CC#N)CC[C@@]1(C)NCC(=O)N1C[C@@H](F)C[C@H]1C#N	56.5
CC1(C)[C@@H](CN2CCCC2)CC[C@@]1(C)NCC(=O)N1C[C@@H](F)C[C@H]1C#N	31.9

Now examine the next entry.
Prompt: Recorded inhibition at 0.3 µM of CC1(C)[C@H](CN2CCCCC2)CC[C@]1(C)NCC(=O)N1C[C@@H](F)C[C@H]1C#N , please.
Completion: 84.7

###

Kindly state Selectivity (Fold) DPP 8 for each of the entries shown.
assayedTarget: human recombinant Dipeptidyl peptidase 8 enzyme (hrDPP 8) (Homo sapiens)
Construct: purchased R&D systems
Sequence (Q6V1X1 whole entry): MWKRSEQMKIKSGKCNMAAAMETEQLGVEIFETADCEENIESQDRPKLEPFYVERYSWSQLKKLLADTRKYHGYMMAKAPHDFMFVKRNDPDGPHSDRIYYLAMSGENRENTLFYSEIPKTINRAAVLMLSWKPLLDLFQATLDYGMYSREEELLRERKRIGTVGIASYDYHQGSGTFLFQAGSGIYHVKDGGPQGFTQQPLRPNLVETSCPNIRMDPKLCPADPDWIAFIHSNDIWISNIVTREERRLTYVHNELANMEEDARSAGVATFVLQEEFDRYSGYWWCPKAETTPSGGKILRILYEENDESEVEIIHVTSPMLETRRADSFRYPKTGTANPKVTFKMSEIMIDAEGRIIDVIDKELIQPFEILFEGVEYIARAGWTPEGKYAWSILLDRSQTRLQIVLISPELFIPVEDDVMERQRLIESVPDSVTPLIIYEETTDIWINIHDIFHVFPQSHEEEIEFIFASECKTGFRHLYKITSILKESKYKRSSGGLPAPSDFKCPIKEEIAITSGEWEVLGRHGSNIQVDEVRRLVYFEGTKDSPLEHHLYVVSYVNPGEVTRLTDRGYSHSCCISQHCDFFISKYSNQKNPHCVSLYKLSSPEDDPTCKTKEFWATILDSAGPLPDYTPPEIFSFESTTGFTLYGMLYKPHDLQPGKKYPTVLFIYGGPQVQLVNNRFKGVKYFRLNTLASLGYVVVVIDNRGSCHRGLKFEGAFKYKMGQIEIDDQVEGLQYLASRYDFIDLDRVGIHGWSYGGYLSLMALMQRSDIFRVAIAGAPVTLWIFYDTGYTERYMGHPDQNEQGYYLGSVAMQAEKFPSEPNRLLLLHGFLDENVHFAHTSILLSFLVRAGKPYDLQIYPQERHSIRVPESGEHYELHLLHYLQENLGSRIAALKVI
protocolNotes: DPP 8 assay, cleavage of H-Ala-Pro-AFC
Format: biochemical
measurementSetup: selectivity for DPP-IV over DPP 8

# example entries with known answers
testSmiles	Selectivity (Fold) DPP 8
CC1(C)[C@H](Cc2noc(CO)n2)CC[C@]1(C)NCC(=O)N1C[C@@H](F)C[C@H]1C#N	>19000 Fold
CC1(C)[C@H](Cn2cnnn2)CC[C@]1(C)NCC(=O)N1C[C@@H](F)C[C@H]1C#N	>9500 Fold

The following molecules each have a reported value; give each one's Selectivity (Fold) DPP 8.
1. CC1(C)[C@@H](NCC(=O)N2C[C@@H](F)C[C@H]2C#N)CC[C@@]1(C)c1nc(-c2cccnc2)no1
2. CC1(C)[C@H](CN2CCCS2(=O)=O)CC[C@]1(C)NCC(=O)N1C[C@@H](F)C[C@H]1C#N
3. Cc1noc([C@]2(C)CC[C@H](NCC(=O)N3C[C@@H](F)C[C@H]3C#N)C2(C)C)n1
4. CC1(C)[C@@H](NCC(=O)N2C[C@@H](F)C[C@H]2C#N)CC[C@@]1(C)c1nc(-c2cnccn2)no1
5. Cc1noc([C@@]2(C)CC[C@@H](NCC(=O)N3C[C@@H](F)C[C@H]3C#N)C2(C)C)n1

Completion:
>250 Fold
>13000 Fold
>900 Fold
>1250 Fold
>2300 Fold

###

assayedTarget: human recombinant Dipeptidyl peptidase 9 enzyme (hrDPP 9) (Homo sapiens, UniProt Q86TI2)
Construct: purchased R&D systems
Sequence (Q86TI2 whole entry): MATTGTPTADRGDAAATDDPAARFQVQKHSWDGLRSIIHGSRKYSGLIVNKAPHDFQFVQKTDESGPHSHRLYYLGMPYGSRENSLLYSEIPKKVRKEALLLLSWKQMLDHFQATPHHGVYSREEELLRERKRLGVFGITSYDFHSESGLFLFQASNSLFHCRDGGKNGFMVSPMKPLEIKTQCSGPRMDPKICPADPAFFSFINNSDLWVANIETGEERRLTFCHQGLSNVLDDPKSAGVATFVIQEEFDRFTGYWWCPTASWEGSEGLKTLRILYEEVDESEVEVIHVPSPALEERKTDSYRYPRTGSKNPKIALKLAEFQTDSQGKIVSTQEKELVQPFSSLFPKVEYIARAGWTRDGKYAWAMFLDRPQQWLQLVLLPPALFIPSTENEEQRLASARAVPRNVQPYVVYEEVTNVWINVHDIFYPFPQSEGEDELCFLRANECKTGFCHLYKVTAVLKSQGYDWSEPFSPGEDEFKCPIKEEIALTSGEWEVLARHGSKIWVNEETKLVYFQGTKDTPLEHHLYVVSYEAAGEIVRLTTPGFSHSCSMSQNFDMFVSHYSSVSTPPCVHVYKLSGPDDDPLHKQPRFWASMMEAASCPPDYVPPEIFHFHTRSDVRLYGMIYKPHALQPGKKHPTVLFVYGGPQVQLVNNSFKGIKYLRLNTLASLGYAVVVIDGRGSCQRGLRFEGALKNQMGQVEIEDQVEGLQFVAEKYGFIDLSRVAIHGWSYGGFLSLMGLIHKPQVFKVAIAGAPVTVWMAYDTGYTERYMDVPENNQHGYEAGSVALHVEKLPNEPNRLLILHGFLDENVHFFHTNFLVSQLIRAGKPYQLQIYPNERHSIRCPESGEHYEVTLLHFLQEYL
protocolNotes: DPP 9 assay, cleavage of H-Gly-Pro-AMC
Format: biochemical
measurementSetup: selectivity for DPP-IV over DPP 9
Give Selectivity (Fold) DPP 9 for every item shown.

In the examples that follow, each entry is paired with its recorded Selectivity (Fold) DPP 9.
molecule	assayReadout	observed
CC1(C)[C@H](CN2CCCCS2(=O)=O)CC[C@]1(C)NCC(=O)N1C[C@@H](F)C[C@H]1C#N	Selectivity (Fold) DPP 9	>1250 Fold
Cc1noc([C@@]2(C)CC[C@@H](NCC(=O)N3C[C@@H](F)C[C@H]3C#N)C2(C)C)n1	Selectivity (Fold) DPP 9	>150 Fold
CC1(C)[C@H](Cc2noc(CO)n2)CC[C@]1(C)NCC(=O)N1C[C@@H](F)C[C@H]1C#N	Selectivity (Fold) DPP 9	>7000 Fold
CC1(C)[C@@H](NCC(=O)N2C[C@@H](F)C[C@H]2C#N)CC[C@@]1(C)c1nc(-c2cccnc2)no1	Selectivity (Fold) DPP 9	>15 Fold
CC1(C)[C@H](CN2CCOCC2)CC[C@]1(C)NCC(=O)N1C[C@@H](F)C[C@H]1C#N	Selectivity (Fold) DPP 9	>1500 Fold

I'm hoping you can list Selectivity (Fold) DPP 9 for every molecule here, please.
1. CC1(C)[C@H](Cn2cncn2)CC[C@]1(C)NCC(=O)N1C[C@@H](F)C[C@H]1C#N
2. CC1(C)[C@H](CN2CCCS2(=O)=O)CC[C@]1(C)NCC(=O)N1C[C@@H](F)C[C@H]1C#N

Completion:
1. >5000 Fold
2. >1100 Fold

Parameters: items (list). Returns: Selectivity (Fold) DPP 9 for each item.
1. CC1(C)[C@H](Cc2noc(-c3ccncc3)n2)CC[C@]1(C)NCC(=O)N1C[C@@H](F)C[C@H]1C#N
2. CC(C)c1nc(C[C@@H]2CC[C@](C)(NCC(=O)N3C[C@@H](F)C[C@H]3C#N)C2(C)C)no1 [Example 61, methanesulfonate]
3. CC1(C)[C@@H](NCC(=O)N2C[C@@H](F)C[C@H]2C#N)CC[C@@]1(C)c1nc(-c2ccncc2)no1
4. CC1(C)[C@@H](NCC(=O)N2C[C@@H](F)C[C@H]2C#N)CC[C@@]1(C)c1nc(-c2cnccn2)no1

Completion:
[">1850 Fold", ">7271 Fold", ">25 Fold", ">35 Fold"]

Below is a list of molecules. For each, state its recorded Selectivity (Fold) DPP 9.
1. CC1(C)[C@H](Cn2cnnn2)CC[C@]1(C)NCC(=O)N1C[C@@H](F)C[C@H]1C#N
2. Cc1nc(C[C@@H]2CC[C@](C)(NCC(=O)N3C[C@@H](F)C[C@H]3C#N)C2(C)C)no1
3. CC1(C)[C@H](NCC(=O)N2C[C@@H](F)C[C@H]2C#N)CC[C@]1(C)c1nc(-c2cccnc2)no1
4. Cc1noc([C@]2(C)CC[C@H](NCC(=O)N3C[C@@H](F)C[C@H]3C#N)C2(C)C)n1
5. CC1(C)[C@H](NCC(=O)N2C[C@@H](F)C[C@H]2C#N)CC[C@]1(C)c1nc(-c2ccc(F)cc2)no1

Completion:
>1900 Fold
>9000 Fold
>150 Fold
>25 Fold
>250 Fold

###

assayedTarget: DPP-IV (Homo sapiens, UniProt P27487)
Construct: from tissue; host or cells: human plasma (per the earlier reading of the assay)
Sequence (P27487 39-766 limits assumed): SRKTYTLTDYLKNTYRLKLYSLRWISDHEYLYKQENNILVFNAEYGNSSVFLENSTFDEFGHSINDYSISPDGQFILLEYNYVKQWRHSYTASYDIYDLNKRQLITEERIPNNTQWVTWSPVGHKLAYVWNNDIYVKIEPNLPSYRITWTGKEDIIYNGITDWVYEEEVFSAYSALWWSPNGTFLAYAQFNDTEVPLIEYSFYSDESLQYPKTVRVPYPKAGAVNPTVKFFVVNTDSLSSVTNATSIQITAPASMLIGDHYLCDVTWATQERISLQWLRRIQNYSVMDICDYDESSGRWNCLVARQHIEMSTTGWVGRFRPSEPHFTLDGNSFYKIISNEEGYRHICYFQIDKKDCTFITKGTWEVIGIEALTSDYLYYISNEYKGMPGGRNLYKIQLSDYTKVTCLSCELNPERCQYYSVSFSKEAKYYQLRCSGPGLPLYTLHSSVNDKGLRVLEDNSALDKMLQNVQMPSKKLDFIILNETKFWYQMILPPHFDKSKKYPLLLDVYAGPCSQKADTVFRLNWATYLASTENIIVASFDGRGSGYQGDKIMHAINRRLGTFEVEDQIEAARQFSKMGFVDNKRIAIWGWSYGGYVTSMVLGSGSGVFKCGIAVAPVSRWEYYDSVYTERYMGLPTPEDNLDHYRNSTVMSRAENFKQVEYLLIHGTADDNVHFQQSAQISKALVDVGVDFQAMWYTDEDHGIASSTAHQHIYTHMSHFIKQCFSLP
protocolNotes: DPP-IV inhibition, compounds screened by using human plasma
Type: biochemical
measurementSetup: screened by using human plasma (starred examples)
assayReadout: IC50
Give your result as the value with the unit written after it.

testSmiles	assayedTarget	IC50
CC1(C)[C@H](c2nc(-c3ccc(F)cc3)no2)CC[C@]1(C)NCC(=O)N1C[C@@H](F)C[C@H]1C#N	DPP-IV (Homo sapiens, UniProt P27487)	422 nM
CC1(C)[C@@H](CNC(=O)c2ccccc2F)CC[C@@]1(C)NCC(=O)N1C[C@@H](F)C[C@H]1C#N	DPP-IV (Homo sapiens, UniProt P27487)	330 nM

From here, focus on the item given below.
Prompt: Observed IC50 on DPP-IV (Homo sapiens, UniProt P27487) for CC1(C)[C@@H](NCC(=O)N2C[C@@H](F)C[C@H]2C#N)CC[C@@]1(C)c1nc(-c2ccc(F)cc2)no1 , please.
Completion: 238 nM

###

assayedTarget: human recombinant Dipeptidyl peptidase IV enzyme (hrDPP IV) (Homo sapiens, UniProt P27487)
Sequence (P27487 whole entry): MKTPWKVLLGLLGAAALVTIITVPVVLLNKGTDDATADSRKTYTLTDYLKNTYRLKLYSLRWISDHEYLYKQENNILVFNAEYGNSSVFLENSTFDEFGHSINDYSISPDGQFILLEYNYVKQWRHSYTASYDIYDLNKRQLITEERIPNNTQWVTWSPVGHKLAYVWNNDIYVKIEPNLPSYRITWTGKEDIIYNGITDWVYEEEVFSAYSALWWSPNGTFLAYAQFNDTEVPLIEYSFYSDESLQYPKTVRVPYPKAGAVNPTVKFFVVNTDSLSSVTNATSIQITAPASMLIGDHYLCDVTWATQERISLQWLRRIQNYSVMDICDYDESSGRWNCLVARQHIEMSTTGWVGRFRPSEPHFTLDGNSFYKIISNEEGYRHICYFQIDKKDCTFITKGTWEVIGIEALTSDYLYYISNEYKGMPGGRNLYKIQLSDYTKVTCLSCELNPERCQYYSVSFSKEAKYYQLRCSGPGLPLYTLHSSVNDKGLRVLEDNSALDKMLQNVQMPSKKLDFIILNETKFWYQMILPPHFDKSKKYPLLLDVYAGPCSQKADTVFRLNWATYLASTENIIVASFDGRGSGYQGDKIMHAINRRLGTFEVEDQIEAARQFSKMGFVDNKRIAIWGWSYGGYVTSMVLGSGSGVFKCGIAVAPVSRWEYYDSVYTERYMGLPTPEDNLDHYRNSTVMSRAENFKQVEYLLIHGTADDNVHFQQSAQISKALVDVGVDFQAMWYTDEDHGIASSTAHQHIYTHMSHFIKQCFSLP
protocolNotes: DPP IV assay, cleavage of H-Gly-Pro-AMC by human recombinant DPP-IV enzyme
Would you mind telling me the reported log10(IC50) of each entry?
Please interpret these as log10 of IC50 where IC50 is in nM.

Answer for every listed entry: what is its log10(IC50)? The entries follow.
1. CC1(C)[C@H](Cc2noc(C(F)(F)F)n2)CC[C@]1(C)NCC(=O)N1C[C@@H](F)C[C@H]1C#N
2. CC(C)c1nc(C[C@@H]2CC[C@](C)(NCC(=O)N3C[C@@H](F)C[C@H]3C#N)C2(C)C)no1 [Example 61, methanesulfonate]
3. CC1(C)[C@@H](NCC(=O)N2C[C@@H](F)C[C@H]2C#N)CC[C@@]1(C)c1nc(-c2cnccn2)no1
4. CC1(C)[C@H](Cn2cnnn2)CC[C@]1(C)NCC(=O)N1C[C@@H](F)C[C@H]1C#N
5. CC1(NCC(=O)N2C[C@@H](F)C[C@H]2C#N)CCC(CS(=O)(=O)c2ccc(S(C)(=O)=O)cc2)C1(C)C (stereo in doubt)
6. CC1(C)[C@H](Cc2noc(CO)n2)CC[C@]1(C)NCC(=O)N1C[C@@H](F)C[C@H]1C#N
7. CC1(C)[C@H](NCC(=O)N2C[C@@H](F)C[C@H]2C#N)CC[C@]1(C)c1nc(-c2ccc(F)cc2)no1
8. CC1(C)[C@@H](CS(=O)(=O)c2ccc(S(C)(=O)=O)cc2)CC[C@@]1(C)NCC(=O)N1CCC[C@H]1C#N

Completion:
1. 1.29
2. 1.14
3. 1.51
4. 0.78
5. 1.77
6. 0.82
7. 1.88
8. 2.76

###

assayedTarget: human recombinant Dipeptidyl peptidase IV enzyme (hrDPP IV) (Homo sapiens)
Construct: purchased R&D systems
protocolNotes: DPP IV assay, cleavage of H-Gly-Pro-AMC by human recombinant DPP-IV enzyme
Format: biochemical
measurementSetup: 300 nM compound concentration
Label Yes when inhibition at 0.3 µM >= 40%; otherwise No.

Consider the following illustrative entries.
testSmiles	cat
CC1(C)[C@@]2(C)CC[C@]1(NCC(=O)N1CCC[C@H]1C#N)COC2	No
CC1(C)[C@H](CNC(=O)C2CCC(F)(F)CC2)CC[C@]1(C)NCC(=O)N1C[C@@H](F)C[C@H]1C#N	Yes
CC1(C)[C@@]2(C)CC[C@]1(NCC(=O)N1C[C@@H](F)C[C@H]1C#N)COC2	No

In the following, a different molecule is considered.
Prompt: Please indicate if the recorded inhibition at 0.3 µM for CC1(C)[C@@H](NCC(=O)N2C[C@@H](F)C[C@H]2C#N)CC[C@@]1(C)CCCn1cncn1 meets or exceeds 40%.
Completion: Yes
